pIC50: −log10 of the molar value.
This section presents pIC50 values reported for Procathepsin L (Homo sapiens, UniProt P07711) in the literature.

# input Report pIC50 from Procathepsin L (Homo sapiens, UniProt P07711) testing of CSc1ccc(-c2ccc([C@H](N[C@@H](CC(C)C)C(=O)N3C[C@H](F)[C@H]4OCC(=O)[C@H]43)C(F)(F)F)cc2)cc1
# output 5.26

# input Report pIC50 from Procathepsin L (Homo sapiens, UniProt P07711) testing of N#CC1(NC(=O)C2(NC(=O)c3cc4ccc(-c5ccc(C6(F)CCS(=O)(=O)CC6)cc5)cc4o3)CCCCC2)CC1
# output < 5.00

# input Report pIC50 from Procathepsin L (Homo sapiens, UniProt P07711) testing of CS(=O)(=O)c1nc(-c2ccc3cc(C(=O)NC4(C(=O)NC5(C#N)CC5)CCCCC4)oc3c2)cs1
# output < 5.00

# input Report pIC50 from Procathepsin L (Homo sapiens, UniProt P07711) testing of CC(C)[C@@H]1NC(=O)/C=C/[C@@H](NC(=O)[C@H](C)NC(=O)OC(C)(C)C)COC(=O)[C@H](Cc2ccc(O)cc2)NC1=O
# output > 5.52

# input Report pIC50 from Procathepsin L (Homo sapiens, UniProt P07711) testing of Cc1cc(-c2ccc3cc(C(=O)NC4(C(=O)NC5(C#N)CC5)CCC(F)(F)CC4)oc3c2)ccc1-n1cncn1
# output < 5.00

# input Report pIC50 from Procathepsin L (Homo sapiens, UniProt P07711) testing of N#CC1(NC(=O)C2(NC(=O)c3cc4ccc(-c5ccc(N6CCOCC6=O)cc5)cc4o3)CCC(F)(F)CC2)CC1
# output < 5.00

###

This section presents IC50 values reported for Procathepsin L (Homo sapiens, UniProt P07711) in the literature.

# input Read off the recorded IC50 for COc1cc(-c2ccc3cc(C(=O)NC4(C(=O)NC5(C#N)CC5)CCC(F)(F)CC4)oc3c2)ccc1C(=O)N1CCOCC1
# output > 10 µM

# input Read off the recorded IC50 for CS(=O)(=O)c1ccc(-c2ccc3cc(C(=O)NC4(C(=O)NC5(C#N)CC5)CCCCCC4)oc3c2)cc1
# output > 10 µM

# input Read off the recorded IC50 for N#CC1(NC(=O)C2(NC(=O)c3cc4ccc(-c5ccc(-n6cncn6)c(OC(F)F)c5)cc4o3)CCC(F)(F)CC2)CC1
# output > 10 µM

# input Read off the recorded IC50 for N#CC1(NC(=O)C2(NC(=O)c3cc4ccc(-c5ccc(-n6cncn6)cc5)cc4o3)CCCCC2)CC1
# output > 10 µM

# input Read off the recorded IC50 for CC(C)C[C@H](CCS(=O)(=O)c1ccc2ccccc2c1)C(=O)N[C@H](C=O)CC(C)C
# output 0.003 µM

# input Read off the recorded IC50 for CC(=O)O[C@@H]1NC(=O)[C@@]1(C)NC(=O)[C@H](Cc1ccccc1)NC(=O)CCc1ccccc1
# output 1.91 µM

# input Read off the recorded IC50 for COC[C@@H]1C[C@@H](NC(=O)c2ncc(-c3cc(C#N)ccc3OC(F)(F)F)o2)CN1C#N
# output 13.8 µM

# input Read off the recorded IC50 for CC(C)(C)OC(=O)N[C@H](CC(=O)N1CCc2ccccc2C1)C(=O)N[C@H](C=O)Cc1ccccc1
# output 24 µM

# input Read off the recorded IC50 for CCCCCC/C=C\CC(=O)N[C@@H](Cc1ccc(O)cc1)C(=O)N[C@H](C(=O)N[C@@H]1/C=C/C(=O)N[C@@H](C(C)C)C(=O)N[C@@H](C)C(=O)OC1)C(C)C
# output < 3 µM

# input Read off the recorded IC50 for CN(C)c1ccc(N2C(=O)C=CC2=O)cc1
# output > 100 µM

# input Read off the recorded IC50 for CCCCCC/C=C\CC(=O)N[C@@H](Cc1ccc(O)cc1)C(=O)N[C@H](C(=O)N[C@@H]1/C=C/C(=O)N[C@@H](C(C)C)C(=O)N[C@@H](Cc2ccc(O)cc2)C(=O)OC1)C(C)C
# output < 3 µM

# input Read off the recorded IC50 for CS(=O)(=O)c1ccc(-c2ccc3cc(C(=O)NC4(C(=O)NC5(C#N)CC5)CCC(F)(F)CC4)oc3c2)cc1
# output > 10 µM

# input Read off the recorded IC50 for N#CC1(NC(=O)C2(NC(=O)c3cc4ccc(-c5ccc6c(c5)OCCO6)cc4o3)CCC(F)(F)CC2)CC1
# output > 10 µM

# input Read off the recorded IC50 for N#CC1(NC(=O)C2(NC(=O)c3cc4ccc(-c5ccc(S(=O)(=O)N6CCOCC6)cc5)cc4o3)CCC(F)(F)CC2)CC1
# output > 10 µM
